assay_notes: Toxicity in brine shrimp larvae
Assay type: organism-based
test_context: artemia, in vivo

compound	value_units	LC50
CC(O)C#CC#CC#CC#CCCCCCCCC(=O)O (single isomer, unassigned; (-))	µg/mL	5.06
